# Tested on: SK-MEL-5
# protocol-notes: NCI tumour cell line growth inhibition, 48 h
Where a name gives a salt, the structure may show the parent alone. Calls of active or inactive are those of the source. Cut-off read from the data, not from the text of the source: active = GI50 up to about 1.1 µM and inactive = higher.
Outcomes: true = active, false = inactive

1) NC(=S)NS(=O)(=O)c1ccc(Cl)cc1 | false
2) CSC1=C(C)S/C(=C\c2ccc(/C=C3\SC(C)=C(SC)S3)cc2)S1 | false
3) O=[N+]([O-])c1ccc2c(c1)n1c(N3CCCC3)[n+]3ccccc3c1c1c3ccccn3c(N3CCCC3)[n+]21.[O-][Cl+3]([O-])([O-])[O-].[O-][Cl+3]([O-])([O-])[O-] | false
4) CN1CC2CN(Cc3ccccc3)CCN2c2cccnc21 (configuration not stated) | false
5) NCCc1cc(O)c(O)cc1O [OXIDOPAMINE HYDROCHLORIDE] | false
6) O=C1C2=C(SCCS2)C(=O)c2ccccc21 | false
7) Cc1ccc2c(O)cc(-c3ccc(C)s3)nc2n1 | true
8) CCCCC1C=Cn2c(=O)oc3c(OC(C)C)c(OC(C)C)c(O)c1c32 (configuration not stated) | false
9) CCOC(=O)P(=O)(O)c1ccc(N(C)Cc2ccccc2)cc1 | false
10) O=C(NCc1cccnc1)C(=O)NCc1cccnc1 | false
11) c1ccc(CNc2nncc3[nH]cnc23)cc1 | false
12) O=C1CC[C@H]2CNC(=O)C[C@H]2C1 | false

###

# System: Malme-3M
# protocol-notes: NCI tumour cell line growth inhibition, 48 h
Active and inactive are the calls of the source. Cut-off read from the data, not from the text of the source: active = GI50 up to about 1.1 µM and inactive = higher.
measurement-type: GI50

1) CCOC(=O)/C(C(=S)Nc1ccccc1)=C(/N)N1CCCC1 | > 100 µM (inactive)
2) O=[N+]([O-])c1cccc(C2SCc3nc4ccccc4n32)c1 (stereo unspecified) | 54.1 µM (inactive)
3) C/C(=N\Nc1ccc([N+](=O)[O-])cc1[N+](=O)[O-])c1ccc2ccccc2n1 | > 100 µM (inactive)
4) O=C(NCc1cccnc1)C(=O)NCc1cccnc1 | > 100 µM (inactive)
5) COc1cccc2c1C(=O)c1c(O)c3c(c(O)c1C2=O)CC(O)(C(=O)CO)CC3OC1CC(N)C(I)C(C)O1 (stereo unspecified) | 6.05 µM (inactive)
6) Cc1cc(OCc2nnc3sc(NC(=O)c4ccccc4)nn23)ccc1Cl | 21.4 µM (inactive)
7) O=C1CCCc2cc3c(cc21)CC1(C3)Cc2cc3c(cc2C1)C(=O)CCC3 | 0.798 µM (active)
8) N#Cc1ccc(C(C2C(=O)NC(=O)NC2=O)C2C(=O)NC(=O)NC2=O)cc1 | > 100 µM (inactive)
9) Cc1ccc(S(=O)(=O)N[C@H](C(=O)O)c2ccccc2)cc1 | > 100 µM (inactive)
10) CC(C)(C)C(=O)O[C@@H]1COC2C(O)COC21 (stereo partly specified) | > 100 µM (inactive)
11) Cc1cccc2c(=O)cc(-c3ccccc3)[nH]c12 | 4.09 µM (inactive)
12) FC(F)(F)c1nc2ccc(SSc3ccc4nc(C(F)(F)F)[nH]c4c3)cc2[nH]1 | > 10 µM (inactive)
13) CC(=O)OC1CC2(c3ccccc3)C(=O)c3ccccc3N2O1 (stereo unspecified) | > 100 µM (inactive)
14) COc1ccc(/C=C\c2cc(OC)c(O[Si](C)(C)C(C)(C)C)c(OC)c2)cc1 | 34.8 µM (inactive)
15) c1ccc2c(c1)Cn1c-2nc2ccccc21 | 76 µM (inactive)
16) CC1(c2sccc2Cl)CC(c2sccc2Cl)=C(C#N)C(=C(C#N)C#N)N1 (stereo unspecified) | 17.6 µM (inactive)
17) CCCCCc1c(CCCC)c(=O)[nH]c2cc(CNCC(OC)OC)ccc12 | 2.83 µM (inactive)
18) CN(Cc1cnc2nc(N)nc(N)c2n1)c1ccc(C(=O)NC(CCC(=O)O)C(=O)O)c2ccccc12 (stereo unspecified) | 0.0356 µM (active)
19) O=C(Cc1ccccc1[N+](=O)[O-])C(CO)c1ccccc1[N+](=O)[O-] (stereo unspecified) | 79.4 µM (inactive)
20) O=C(NCCCCCCNC(=O)c1cc(-c2ccccc2)nc2ccccc12)c1cc(-c2ccccc2)nc2ccccc12 | > 100 µM (inactive)
21) CC1=C(C(=O)Nc2cccc(Cl)c2)C(c2ccccc2O)C(C(=O)Nc2cccc(Cl)c2)=C(C)N1 | 19.4 µM (inactive)

###

# System: UACC-257
# protocol-notes: NCI tumour cell line growth inhibition, 48 h
Counter-ions that a name gives are not always drawn. The source made the active and inactive calls. Cut-off read from the data, not from the text of the source: active = GI50 up to about 1.1 µM and inactive = higher.
Outcome codes: true = active, false = inactive

1) CO/N=C(\C(=O)N(C)n1cnnc1)c1csc(NC(c2ccccc2)(c2ccccc2)c2ccccc2)n1 | false
2) [B].c1ccc([Si](OCCN2CC2)(c2ccccc2)c2ccccc2)cc1 | false
3) O=C(O)[C@@H]1OCCOCCO[C@@H](C(=O)O)[C@H](C(=O)O)OCCOCCO[C@H]1C(=O)O | false
4) Cc1cc(N(CCC#N)CCC#N)ccc1C(/N=N\c1ccc(C(=O)O)cc1)=N\NC(=O)c1cc(Cl)ccc1O | false
5) CCNc1nc(N)c(C(=O)c2cccs2)s1 | false
6) NCCc1cc(O)c(O)cc1O [OXIDOPAMINE HYDROCHLORIDE] | false
7) O=c1cccccc1NCCCCCCCCCNc1cccccc1=O | false
8) O=C(Nc1ccccc1F)c1cc2ccc(O)cc2o/c1=N\c1cccc(C(F)(F)F)c1 | false
9) NCCNCC(O)CO (configuration not stated) | false
10) O=C(CN(Cc1ccccc1)Cc1ccccc1)N1CCc2c([nH]c3ccccc23)C1c1cccnc1 (configuration not stated) | false
11) CSc1nc(SC)c2cnn(CC3CO3)c2n1 (configuration not stated) | false
12) COc1ccc(/N=N/c2c(O)ccc3ccccc23)cc1 | false
13) C=CCc1c(Cl)nc(Cl)nc1Cl | true
14) CC(C)(CO)N1CCN(C(S)=Nc2ccccc2)CC1 | false
15) COc1cc2c(cc1OC)[C@]1(O)C(=O)c3ccc4c(c3O[C@@H]1CO2)C[C@H](C(C)(C)O)O4 | false
16) Cc1cc2c(=O)cc(-c3ccncc3)oc2c(C(N)=O)c1C | false
17) NC1CCCCC1NCCNC1CCCCC1N (configuration not stated) | false
18) CCOC(=O)/C(C(=S)Nc1ccccc1)=C(/N)N1CCCC1 | false
19) O=C1C(c2ccccc2)=C(c2ccccc2)[C@H](c2ccccc2)[C@]1(Cc1nnn(-c2ccc([N+](=O)[O-])cc2)c1N1CCOCC1)c1ccccc1 | false
20) Cc1ccc(Nc2cn(COCc3ccccc3)c(=O)[nH]c2=O)cc1 | false
21) O=C(NCc1cccnc1)C(=O)NCc1cccnc1 | false
22) CC(C)C(/C=C/c1ccccc1)=N\NC(=O)N/N=C(/C=C/c1ccccc1)C(C)C | false

###

Reported values of GI50 for individual entries
# Test system: NCI-H460
# protocol-notes: NCI tumour cell line growth inhibition, 48 h
Calls of active or inactive are those of the source. No stated cut-off is given here; in the data, active = GI50 up to about 1.1 µM and inactive = higher.
measurement-type: GI50

1) C#CCC(O)c1ccccc1C(O)CC#C (stereo unspecified) | > 100 µM (inactive)
2) NC(=S)NS(=O)(=O)c1ccc(Cl)cc1 | > 100 µM (inactive)
3) COc1ccc(-c2nc3cc(F)ccc3s2)cc1O | 21.3 µM (inactive)
4) CCOC(=O)/C(C(=S)Nc1ccccc1)=C(/N)N1CCCC1 | 62.2 µM (inactive)
5) Cc1cccc2c1Oc1ncccc1C2NC(=O)CN(C)C (stereo unspecified) | > 10 µM (inactive)
6) CCOC(=O)C1C(=O)C=C(c2cc(C)ccc2O)CC1c1cccc(Br)c1 (stereo unspecified) | 19.5 µM (inactive)
7) COC1(OC)N=C(N)C2(C#N)C3(C(=O)N(C(C)C)N=C3C)C12C#N (stereo unspecified) | > 100 µM (inactive)
8) Cc1cccc(C(=O)O)c1C(=O)c1cccc2ccccc12 | > 100 µM (inactive)
9) CCOC(=O)c1c(SC(=O)/C=C/c2ccccc2)n(-c2ccccc2)c(=S)n(-c2ccccc2)c1=O | > 100 µM (inactive)
10) CC(Oc1ccc(OCC2CCCCC2)cc1)C(=O)OCC(=O)c1ccc(-c2ccccc2)cc1 (stereo unspecified) | > 100 µM (inactive)
11) CCCN1C(=O)/C(=C\c2ccc(OC)c(OC)c2)S/C1=N\c1ccccc1 | > 100 µM (inactive)

###

# System: EKVX
# protocol-notes: NCI tumour cell line growth inhibition, 48 h
Activity calls are given as the source filed them. Cut-off read from the data, not from the text of the source: active = GI50 up to about 1.1 µM and inactive = higher.
measurement-type: GI50

1. CC1=CC(=O)NP(=O)(Oc2ccc(Cl)cc2)N1 (stereo unspecified) | > 100 µM (inactive)
2. COC(=O)CC1c2ccccc2N2C(=O)Cc3c([nH]c4ccccc34)C12 (stereo unspecified) | > 100 µM (inactive)
3. CC1(C)C(N2CCOCC2)CS1(=O)=O (stereo unspecified) | > 10 µM (inactive)
4. CC(=O)C1(c2ccccc2)CCN(Cn2sc3nc(C)cc(C)c3c2=O)CC1 | 23.3 µM (inactive)
5. CCOC(=O)C(=O)C(CCC(=O)c1ccc2ccccc2c1O)C(=O)OCC (stereo unspecified) | > 100 µM (inactive)
6. CC1=C(C(=O)Nc2cccc(Cl)c2)C(c2ccccc2O)C(C(=O)Nc2cccc(Cl)c2)=C(C)N1 | 22.4 µM (inactive)
7. C=CCC12CCC(=O)C=C1CCC1(C2)OCCO1 (stereo unspecified) | > 100 µM (inactive)
8. CCOC(=O)C1=C(OC(OCC)C(CC)[Se]c2ccccc2)CCC1 (stereo unspecified) | 29.2 µM (inactive)
9. CCOC(=O)P(=O)(O)c1ccc(N(C)Cc2ccccc2)cc1 | > 100 µM (inactive)
10. O=C1c2ccccc2OP(=O)(OCC(F)(F)F)OC1(C(F)(F)F)C(F)(F)F (stereo unspecified) | > 100 µM (inactive)
11. NCCNCC(O)CO (stereo unspecified) | > 100 µM (inactive)
